Assay: qHTS of pediatric cancer cell lines to identify multiple opportunities for drug repurposing: Confirmatory screen for DAOY cells (AID 1347114); further: nearly all actives have a fitted effect of over 65% in size
Conditions: DAOY medulloblastoma cells viability, cytotoxicity qHTS; series mostly up to 45.9 µM
Procedure: Drug repurposing or repositioning has been offered as a strategy for drug development in oncology programs. […] [1] Shen, M et al. Quantitative high-throughput phenotypic screening of pediatric cancer cell lines identifies multiple opportunities for drug repurposing. […] Cells were assayed in growth media at a density of 500-1,000 cells/well. […] After a 15 min incubation at room temperature, samples were analyzed for luminescence intensity using a ViewLux High-throughput CCD imager equipped with clear filters.
Inconclusive results are not listed. Calls of active or inactive are those of the source. The call rests on the fitted dose curve; in most records, active means well fitted cell-killing curve with a large enough effect; inconclusive means small, poorly fitted or top-dose-only effect; inactive means no such curve, though single readings can be large or run the other way.
Please answer using one outcome listed in active, inactive

> print(dat)
                                   compound  grouplabel
1  C=C(c1ccc(C(=O)O)cc1)c1cc2c(cc1C)C(C)(C)CCC2(C)C    inactive

**Query** Any idea what this test logged for CCOc1cc(CC(=O)N[C@@H](CC(C)C)c2ccccc2N2CCCCC2)ccc1C(=O)O ?
**Result** inactive

**Query** Look up the recorded call for Clc1ccc(C(Cn2ccnc2)OCc2ccc(Sc3ccccc3)cc2)c(Cl)c1 (stereo unspecified) in this test.
**Result** active

**Query** Outcome logged for O=C1c2c(O)cc(O)cc2OC(c2ccc(O)c(O)c2)C1O (stereo unspecified) in this assay:
**Result** inactive

**Query** In this assay, the call recorded for CS(=O)(=O)OCCCCOS(C)(=O)=O was what?
**Result** inactive

**Query** # outcome recorded in this test, key = Nc1nc(Cl)nc2c1ncn2[C@H]1C[C@H](O)[C@@H](CO)O1
**Result** inactive
